Taken from patent US20250011363A1.

target: acetylcholine receptor; assay: SPR, AchR immobilized on chip, peptide at 10 uM
value type: Binding affinity (RU)
Write the answer as a number in RU, unit excluded.

Which value of Binding affinity has been reported for KGRRRK [6mer-2-68] in the records?
142

Which value of Binding affinity has been reported for RSLTKK [6mer-2-45] in the records?
121

Which value of Binding affinity has been reported for RSYYRR [6mer-2-4] in the records?
125

Which value of Binding affinity has been reported for KGIQRK [6mer-2-24] in the records?
141
